Target: T1, recombinant human activated Factor VII (FVIIa) (human, UniProt P08709 61-212; P08709 213-466, ten glutamate residues of the Gla domain may be gamma-carboxylated)
T1 construct: chains tethered by a disulfide bond; also called Factor VIIa; rFVIIa
T1 sequence 1: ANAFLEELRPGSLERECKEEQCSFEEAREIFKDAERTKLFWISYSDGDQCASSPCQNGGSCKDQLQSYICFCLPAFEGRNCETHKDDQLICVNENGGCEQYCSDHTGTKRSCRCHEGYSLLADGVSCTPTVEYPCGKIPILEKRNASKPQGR
T1 sequence 2: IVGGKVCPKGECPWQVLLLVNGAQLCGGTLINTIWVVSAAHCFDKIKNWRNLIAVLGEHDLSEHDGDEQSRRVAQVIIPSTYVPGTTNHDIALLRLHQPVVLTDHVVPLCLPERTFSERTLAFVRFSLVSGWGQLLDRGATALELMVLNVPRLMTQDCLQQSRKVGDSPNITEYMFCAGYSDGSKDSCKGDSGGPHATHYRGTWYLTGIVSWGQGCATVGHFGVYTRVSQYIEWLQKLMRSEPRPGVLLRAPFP
Test: BLI (Fortebio)
// Kd lookup, one value per entry
# number only, unit nM dropped from output

binder	unit.text	Kd
VH SEQ ID NO 514 / VL SEQ ID NO 318 (antibody, IgG4, V domains shown, humanized 11F2; IgG4 S228P/kappa) VH: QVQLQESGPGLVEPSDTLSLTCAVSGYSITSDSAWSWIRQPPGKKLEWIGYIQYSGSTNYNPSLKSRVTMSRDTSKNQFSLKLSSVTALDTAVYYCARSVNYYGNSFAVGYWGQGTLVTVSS VL: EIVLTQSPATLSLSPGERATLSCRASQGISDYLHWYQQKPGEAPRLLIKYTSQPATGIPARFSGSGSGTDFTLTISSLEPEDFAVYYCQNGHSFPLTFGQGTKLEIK	nM	0.99
VH SEQ ID NO 538 / VL SEQ ID NO 342 (antibody, IgG4, V domains shown, humanized 11F2; IgG4 S228P/kappa) VH: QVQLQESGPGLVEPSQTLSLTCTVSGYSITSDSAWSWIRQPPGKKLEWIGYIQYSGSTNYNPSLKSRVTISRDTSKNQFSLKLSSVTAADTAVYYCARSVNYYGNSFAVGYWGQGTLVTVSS VL: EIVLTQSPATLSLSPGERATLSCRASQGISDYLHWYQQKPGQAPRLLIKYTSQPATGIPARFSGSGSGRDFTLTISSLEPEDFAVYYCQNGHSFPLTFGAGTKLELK	nM	1.2
VH SEQ ID NO 650 / VL SEQ ID NO 446 (antibody, IgG4, V domains shown, humanized 11F2; IgG4 S228P/kappa) VH: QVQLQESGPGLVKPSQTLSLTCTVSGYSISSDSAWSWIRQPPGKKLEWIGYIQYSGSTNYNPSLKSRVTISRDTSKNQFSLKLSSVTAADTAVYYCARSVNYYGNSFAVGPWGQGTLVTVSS VL: EIVLTQSPATLSLSPGERATLSCRASQGVSDYLAWYQQKPGQAPRLLIKYTSQPATGIPARFSGSGSGTDFTLTISSLEPEDFAVYYCQNGHSFPLTFGQGTKLEIK	nM	39
VH SEQ ID NO 594 / VL SEQ ID NO 462 (antibody, IgG4, V domains shown, humanized 11F2; IgG4 S228P/kappa) VH: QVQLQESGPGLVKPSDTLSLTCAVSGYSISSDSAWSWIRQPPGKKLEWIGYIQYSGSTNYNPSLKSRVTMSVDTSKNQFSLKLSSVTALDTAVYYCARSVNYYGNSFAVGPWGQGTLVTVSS VL: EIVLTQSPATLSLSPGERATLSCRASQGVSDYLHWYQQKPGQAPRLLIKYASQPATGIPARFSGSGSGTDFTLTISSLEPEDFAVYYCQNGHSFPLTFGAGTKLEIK	nM	39
VH SEQ ID NO 514 / VL SEQ ID NO 382 (antibody, IgG4, V domains shown, humanized 11F2; IgG4 S228P/kappa) VH: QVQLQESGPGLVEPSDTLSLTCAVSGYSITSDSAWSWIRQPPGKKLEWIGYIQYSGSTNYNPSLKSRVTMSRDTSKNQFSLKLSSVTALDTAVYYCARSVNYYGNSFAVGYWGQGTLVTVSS VL: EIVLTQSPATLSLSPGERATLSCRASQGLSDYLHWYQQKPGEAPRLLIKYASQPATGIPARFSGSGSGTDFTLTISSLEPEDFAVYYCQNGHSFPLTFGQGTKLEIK	nM	1.2
VH SEQ ID NO 634 / VL SEQ ID NO 422 (antibody, IgG4, V domains shown, humanized 11F2; IgG4 S228P/kappa) VH: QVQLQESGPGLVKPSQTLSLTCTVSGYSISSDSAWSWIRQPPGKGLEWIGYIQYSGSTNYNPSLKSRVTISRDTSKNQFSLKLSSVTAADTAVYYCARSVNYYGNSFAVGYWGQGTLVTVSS VL: EIVLTQSPATLSLSPGERATLSCRASQGVSDYLAWYQQKPGQAPRLLIKYASQPATGIPARFSGSGSGTDFTLTISSLEPEDFAVYYCQQGHSFPLTFGQGTKLEIK	nM	26
VH SEQ ID NO 562 / VL SEQ ID NO 366 (antibody, IgG4, V domains shown, humanized 11F2; IgG4 S228P/kappa) VH: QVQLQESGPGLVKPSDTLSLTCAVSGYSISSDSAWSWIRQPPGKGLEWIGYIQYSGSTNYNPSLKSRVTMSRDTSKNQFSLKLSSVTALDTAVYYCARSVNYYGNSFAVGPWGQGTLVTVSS VL: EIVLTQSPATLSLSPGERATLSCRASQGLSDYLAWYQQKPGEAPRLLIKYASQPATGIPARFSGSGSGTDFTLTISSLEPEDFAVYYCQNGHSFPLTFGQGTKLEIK	nM	8.3
VH SEQ ID NO 554 / VL SEQ ID NO 358 (antibody, IgG4, V domains shown, humanized 11F2; IgG4 S228P/kappa) VH: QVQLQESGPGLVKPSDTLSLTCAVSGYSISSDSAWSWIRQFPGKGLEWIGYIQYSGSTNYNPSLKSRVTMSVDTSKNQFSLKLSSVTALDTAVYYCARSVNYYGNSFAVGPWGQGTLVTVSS VL: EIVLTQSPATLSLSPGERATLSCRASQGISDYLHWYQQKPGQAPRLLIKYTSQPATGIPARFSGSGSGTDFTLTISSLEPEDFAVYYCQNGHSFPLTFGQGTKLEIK	nM	16

Exercise: # get_value(readout='Kd', item= VH SEQ ID NO 610 / VL SEQ ID NO 478 (antibody, IgG4, V domains shown, humanized 11F2; IgG4 S228P/kappa) VH: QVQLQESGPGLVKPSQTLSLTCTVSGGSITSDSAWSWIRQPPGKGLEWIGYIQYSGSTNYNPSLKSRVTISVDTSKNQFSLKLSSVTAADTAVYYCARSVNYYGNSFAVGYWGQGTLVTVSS VL: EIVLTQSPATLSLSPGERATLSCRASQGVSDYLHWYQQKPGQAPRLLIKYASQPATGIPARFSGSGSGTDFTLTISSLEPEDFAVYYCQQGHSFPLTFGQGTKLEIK )
Solution: 33

Exercise: # get_value(readout='Kd', item= VH SEQ ID NO 522 / VL SEQ ID NO 310 (antibody, IgG4, V domains shown, humanized 11F2; IgG4 S228P/kappa) VH: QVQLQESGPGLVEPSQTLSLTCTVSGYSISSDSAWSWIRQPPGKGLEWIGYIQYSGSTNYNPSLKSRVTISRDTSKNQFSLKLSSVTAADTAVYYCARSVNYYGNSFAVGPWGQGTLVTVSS VL: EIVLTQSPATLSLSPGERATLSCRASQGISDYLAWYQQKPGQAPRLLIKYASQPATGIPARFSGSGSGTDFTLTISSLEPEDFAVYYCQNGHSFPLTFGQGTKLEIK )
Solution: 8.3

Taken from patent US20220064329A1.
